The following compounds are listed with their measured GI50 values.
Tested on: RXF 393
Test: NCI tumour cell line growth inhibition, 48 h
Calls of active or inactive are those of the source. Rule as the data show it: active = GI50 up to about 1.1 µM and inactive = higher. Where a SMILES comes first, the peptide text is derived from it. Bridges are numbered along the chain shown (N, C = ends). [ ]: non-standard residue; d: D form. The star is where a group is joined. ξ: configuration not given here. PhAc = O=C(Cc1ccccc1)*; ξP = O=C(O)C1CCCN1

>>> reported_measurement("COc1ccc2cc(/C=N\\NC(=O)Nc3ccc([N+](=O)[O-])cc3)ccc2c1")
"11.2 µM (inactive)"

May I ask what GI50 has been recorded for O=C(Cc1ccccc1)N[C@@H]1COC(=O)C2CCCN2C(=O)[C@@H]2CCCN2C1=O (stereo not given in full) (PhAc-[dS]-Pro-[ξP]; ester 1-C) ?
> 100 µM (inactive)

May I ask what GI50 has been recorded for CC(C)(C)C1CCC(CI)(N=[N+]=[N-])CC1 (stereo not given) ?
> 100 µM (inactive)

May I ask what GI50 has been recorded for CC1=CCN(c2ccccn2)OC1c1ccccc1 (stereo not given) ?
62.8 µM (inactive)

May I ask what GI50 has been recorded for O=C1/C(=C/c2ccc3c(c2)CCC3)Cc2cc3c(cc21)CCC3 ?
49.3 µM (inactive)

---

System: BT-549
Experiment: NCI tumour cell line growth inhibition, 48 h
The source made the active and inactive calls. No stated cut-off is given here; in the data, active = GI50 up to about 1.1 µM and inactive = higher.
// classify into TRUE = active, FALSE = inactive

>>> cat("O=C(O)[C@@H]1C[C@@H](O)CN1C(=O)OCc1ccccc1")
"FALSE"
>>> cat("C=C1CC2(CCOc3ccc(Cl)cc32)OC1=O (stereo not given)")
"TRUE"
>>> cat("CCCCCCCCCCCCCCNC(=O)CCC(NC(=O)c1ccc(N(C)Cc2cnc3nc(N)nc(N)c3n2)cc1)C(=O)NCCCCCCCCCCCCCC (stereo not given)")
"FALSE"
>>> cat("COc1ccc(/C=N/n2c(C)n[nH]c2=O)cc1")
"FALSE"
>>> cat("CN1CCN(C(=S)N(C(=O)c2cccs2)C2CCCCC2)CC1")
"FALSE"

Called result for CCOC(=O)C(NC(=O)CC)(Nc1ccccc1F)C(F)(F)F (stereo not given)
FALSE

Called result for CC(NC(=O)C(CC(=O)OCc1ccccc1)NC(=O)OCc1ccccc1)c1ccccc1 (stereo not given)
FALSE

Called result for NNC(=O)c1c(Cl)c(Cl)c(Cl)c(Cl)c1-c1nc2ccccc2[nH]1
FALSE

Called result for C[N+]1(CC[N+]2(C)CCCC2c2cccnc2)CCCC1c1cccnc1 (stereo not given)
FALSE

Called result for COCC(=O)OC1CCn2c1nc1c2C(=O)C(C)=C(NC(C)=O)C1=N (stereo not given)
TRUE

---

The following compounds are listed with their measured GI50 values.
System: COLO 205
Test: NCI tumour cell line growth inhibition, 48 h
Activity calls are given as the source filed them. Rule as the data show it: active = GI50 up to about 1.1 µM and inactive = higher.

Below, each entry is followed by its recorded GI50 result.
>>> reported_measurement("CC(NC(=O)C(CC(=O)OCc1ccccc1)NC(=O)OCc1ccccc1)c1ccccc1 (stereo unspecified)")
"> 100 µM (inactive)"
>>> reported_measurement("C/C1=N\\[N-]C(=O)c2ccccc2C(=O)N/N=C(\\C)c2cccc1n2.O=[N+]([O-])[O-].[Zn+2]")
"> 100 µM (inactive)"
>>> reported_measurement("CN(C)CCCNC(=O)N/N=C/c1ccc([N+](=O)[O-])cc1")
"> 100 µM (inactive)"

May I ask what GI50 has been recorded for N#CC(C(=O)/C(=N\NC(N)=O)C(C#N)c1ccccc1)c1ccccc1 (stereo unspecified) ?
> 100 µM (inactive)

May I ask what GI50 has been recorded for COC(=O)C1CC/C(=N/C2c3ccccc3-c3ccccc32)N1 (stereo unspecified) ?
47.8 µM (inactive)
